Would you mind telling me the reported cytotoxicity at 70.5 h of each entry?
assay: Human HepG2 cell viability assay in 384 well format; assay type: toxicity, cell-based; set-up: dose 125 nL, time 70.5 hour; concentration not given beside the values; conditions: HepG2 cells, read-out: Inhibition
Reply with just the number (in %).

[Q] Fill in the blank: the reported cytotoxicity at 70.5 h of Cc1cc(C)nc(CNC(=O)C(c2cccnc2)N2CCOCC2)n1 (configuration not stated) is ____.
[A] -6.63

[Q] Fill in the blank: the reported cytotoxicity at 70.5 h of CCc1nnsc1C(=O)N1CCCC(n2nc(C)nc2C)C1 (configuration not stated) is ____.
[A] -3.17

[Q] Fill in the blank: the reported cytotoxicity at 70.5 h of CCOC(=O)CC(NC(=O)c1cn(Cc2ccccc2F)nn1)C(C)C (configuration not stated) is ____.
[A] -9.35

[Q] Fill in the blank: the reported cytotoxicity at 70.5 h of `COc1cccc(OCC(=O)N(C)c2cccnc2)c1` is ____.
[A] 24

[Q] Fill in the blank: the reported cytotoxicity at 70.5 h of NC(=O)c1csc(C(=O)N2CCCCC2Cn2cccn2)c1 (configuration not stated) is ____.
[A] -10.3

[Q] Fill in the blank: the reported cytotoxicity at 70.5 h of `Fc1ccc(-c2noc(CN3CCC(c4cc[nH]n4)CC3)n2)cc1` is ____.
[A] -3.56

[Q] Fill in the blank: the reported cytotoxicity at 70.5 h of `O=C(c1ccccc1F)N1C[C@H]2CCC[C@@]2(COCc2ccncc2)C1` is ____.
[A] -0.88

[Q] Fill in the blank: the reported cytotoxicity at 70.5 h of `CNc1nnc(CCn2nc(C)c(Br)c2C)s1` is ____.
[A] 19.6

[Q] Fill in the blank: the reported cytotoxicity at 70.5 h of `CN(C(=O)c1ccc(-n2ncc(C#N)c2N)cc1)C1CCCC1` is ____.
[A] -1.19

[Q] Fill in the blank: the reported cytotoxicity at 70.5 h of `CCCc1nc(C)c(C(=O)NC2CCN(CC(N)=O)CC2)s1` is ____.
[A] -11.5

[Q] Fill in the blank: the reported cytotoxicity at 70.5 h of `OC[C@@H]1CCCN1c1ccc(-c2nc(COc3ccccc3)no2)cn1` is ____.
[A] 1.55

[Q] Fill in the blank: the reported cytotoxicity at 70.5 h of O=C(NCc1nc(C2CC2)no1)N1CCOC(c2ccccc2)C1 (configuration not stated) is ____.
[A] -13.1

[Q] Fill in the blank: the reported cytotoxicity at 70.5 h of COCCOCC(=O)NC(C#N)c1ccccc1C (configuration not stated) is ____.
[A] -7.18

[Q] Fill in the blank: the reported cytotoxicity at 70.5 h of `CC(=O)Nc1ccc(Cl)c(C(=O)N(C)Cc2nc(C)c[nH]2)c1` is ____.
[A] -8.28

[Q] Fill in the blank: the reported cytotoxicity at 70.5 h of CC(C)=CCC1(CO)CCCN(Cc2nccs2)C1 (configuration not stated) is ____.
[A] -9.67

[Q] Fill in the blank: the reported cytotoxicity at 70.5 h of `CCOc1ccc(-c2ccnc(C3CC3)n2)cc1C(=O)O` is ____.
[A] -3.39

[Q] Fill in the blank: the reported cytotoxicity at 70.5 h of COc1cccc(NC(=O)NCC2CCCN(C3CCOCC3)C2)c1 (configuration not stated) is ____.
[A] -8.3

[Q] Fill in the blank: the reported cytotoxicity at 70.5 h of CCC(=O)NCC(=O)NC(C)c1ccc(OCCC(C)C)cc1 (configuration not stated) is ____.
[A] -2.78

[Q] Fill in the blank: the reported cytotoxicity at 70.5 h of `CCNC(=O)Cc1c(C)nc2c(c1C)c(=O)[nH]n2C` is ____.
[A] -5.26

[Q] Fill in the blank: the reported cytotoxicity at 70.5 h of `Cc1csc(CN(C)CCOc2ccccc2)n1` is ____.
[A] 20.8

[Q] Fill in the blank: the reported cytotoxicity at 70.5 h of Cc1nn(C)c(N(C)C)c1CNCC(O)c1ccccc1 (configuration not stated) is ____.
[A] 0.0769

[Q] Fill in the blank: the reported cytotoxicity at 70.5 h of `CC(C)N(C)C(=O)C1CCN(Cc2cc3c(cc2O)CCC3)CC1` is ____.
[A] -5.17

[Q] Fill in the blank: the reported cytotoxicity at 70.5 h of Cc1cnc(C(=O)N2CCCC3(CCN(c4cnn(C)c4)C3=O)C2)cn1 (configuration not stated) is ____.
[A] -3.83

[Q] Fill in the blank: the reported cytotoxicity at 70.5 h of Cc1cc(N2CCCN(C(C(=O)O)c3cccc(C)c3F)CC2)ccn1 (configuration not stated) is ____.
[A] 3.14

[Q] Fill in the blank: the reported cytotoxicity at 70.5 h of `COCCOc1ncccc1CNCc1c(C)nn(C)c1N(C)C` is ____.
[A] 2.93

[Q] Fill in the blank: the reported cytotoxicity at 70.5 h of `Cc1nnc(C[C@@H]2COC[C@H]3CN(C(=O)c4ccco4)C[C@@H]23)o1` is ____.
[A] -9.01

[Q] Fill in the blank: the reported cytotoxicity at 70.5 h of O=C(c1ccnc(C2CCNCC2)c1)N1CCCC(CO)C1 (configuration not stated) is ____.
[A] -2.32

[Q] Fill in the blank: the reported cytotoxicity at 70.5 h of `COc1cccc(CN2CC3(CCNCC3)CCC2=O)c1OC` is ____.
[A] 0.619

[Q] Fill in the blank: the reported cytotoxicity at 70.5 h of Cc1csc(CCNC(=O)C2CCOC2)n1 (configuration not stated) is ____.
[A] -2.45

[Q] Fill in the blank: the reported cytotoxicity at 70.5 h of `CCOCCSc1nnc(Cc2ccccc2F)o1` is ____.
[A] -0.117

[Q] Fill in the blank: the reported cytotoxicity at 70.5 h of Cc1cc(CC(C)Nc2nc(C3CCCC3)nc3c2cnn3C)[nH]n1 (configuration not stated) is ____.
[A] -13

[Q] Fill in the blank: the reported cytotoxicity at 70.5 h of CN(CC1CCCN(S(C)(=O)=O)C1)c1cnn(C)c1 (configuration not stated) is ____.
[A] 18.9

[Q] Fill in the blank: the reported cytotoxicity at 70.5 h of `CN(Cc1cnn(C)c1)C(=O)Cn1c(CS(C)(=O)=O)nc2ccccc21` is ____.
[A] -12.9

[Q] Fill in the blank: the reported cytotoxicity at 70.5 h of `C[C@@]1(O)CCN(C2CCOCC2)C[C@H]1n1ccc(=O)[nH]c1=O` is ____.
[A] -3.9

[Q] Fill in the blank: the reported cytotoxicity at 70.5 h of CC(CN1CCCCCC1)NCc1nncn1C1CCCCC1 (configuration not stated) is ____.
[A] -6.55

[Q] Fill in the blank: the reported cytotoxicity at 70.5 h of `COc1ccc(Cn2cc(C(=O)N(C)Cc3ccon3)nn2)cc1` is ____.
[A] -3.92

[Q] Fill in the blank: the reported cytotoxicity at 70.5 h of `CCOCCCn1c(NC(=O)c2cc(C)no2)nc2ccccc21` is ____.
[A] 2.27
